# Test system: K562
# Procedure text: NCI tumour cell line growth inhibition, 48 h
The source made the active and inactive calls. Rule as the data show it: active = GI50 up to about 1.1 µM and inactive = higher.
Outcome codes: class 1 = active, class 0 = inactive

[[record]]
compound = "Cc1cc(C)nc(NC(=S)Nc2cccc(Cl)c2)c1"
classification = "class 0"

[[record]]
compound = "CC1(C)C(/C=N\\O)=[N+]([O-])C(C)(C)N1O"
classification = "class 0"

[[record]]
compound = "CCC1CCC2CCCC(C)N12 (stereo not given)"
classification = "class 0"

[[record]]
compound = "CCOC(=O)C1=CN=C2C(=O)N(c3ccccc3)N(C)C2(C)C1=N (stereo not given)"
classification = "class 0"

[[record]]
compound = "CS(=O)(=O)c1c(N)c2nc(Cl)cn2c2nc3ccccc3nc12"
classification = "class 0"

[[record]]
compound = "CC(C)(C)OC(=O)N(O)CCCn1cnc2c(N)ncnc21"
classification = "class 0"

[[record]]
compound = "CN1C/C(=C\\c2cccs2)C(=O)/C(=C/c2cccs2)C1"
classification = "class 0"

[[record]]
compound = "C[C@H](N)C(=O)N[C@@H]1[C@H]2C(=C(O)C[C@@H](O)[C@@H]2O)C(=O)O[C@@H]1C"
classification = "class 0"

[[record]]
compound = "O=C1C=CC2(C=C1)C[C@H](NC(=O)OCc1ccccc1)C(=O)O2"
classification = "class 0"

[[record]]
compound = "COc1ccc(OC)c([N+](=O)[O-])c1-c1nc2sccn2c1/C=N/N=C(N)N"
classification = "class 0"

[[record]]
compound = "CC1=C(CO)C(=O)O[C@@H]([C@@H](C)[C@H]2CC[C@H]3[C@@H]4C[C@H]5O[C@]56[C@@H](O)C=CC(=O)[C@]6(C)[C@H]4CC[C@]23C)C1"
classification = "class 1"

[[record]]
compound = "CC1=NC2(CCCCC2)N(Cl)C(=O)C1SC#N (stereo not given)"
classification = "class 0"

[[record]]
compound = "C/C(N)=N/OCc1nc(C)no1"
classification = "class 0"

[[record]]
compound = "O=Nc1ccc(O)c2ncccc12"
classification = "class 1"

[[record]]
compound = "CCNCC(O)COc1ccc2c(c1)[n+]([O-])nc(N)[n+]2[O-] (stereo not given)"
classification = "class 0"

[[record]]
compound = "N#C[BH2-][n+]1cn(C2CC(OP(=O)(O)OCC3OC(n4cnc5c(N)ncnc54)CC3O)C(CO)O2)c2nc(N)[nH]c(=O)c21 (stereo not given)"
classification = "class 0"

[[record]]
compound = "CC12CCC(C(=O)OC1=O)C(C)(C)O2 (stereo not given)"
classification = "class 0"

[[record]]
compound = "O=C(/N=C(/Nc1ccccc1)SCCS/C(=N\\C(=O)c1ccccc1)Nc1ccccc1)c1ccccc1"
classification = "class 0"

[[record]]
compound = "COc1ccc(C(=O)Cn2c(C(=O)/C=C/c3ccco3)nc3ccccc32)cc1"
classification = "class 0"

[[record]]
compound = "COc1cccc(N2C(=O)C3CC(CC(C)(C)C)c4c([nH]c5ccccc45)C3C2=O)c1 (stereo not given)"
classification = "class 0"


###

Measured GI50 accompanies every entry in the list below.
# Tested on: NCI-H522
# Procedure text: NCI tumour cell line growth inhibition, 48 h
The source made the active and inactive calls. No stated cut-off is given here; in the data, active = GI50 up to about 1.1 µM and inactive = higher.
Outcome measure: GI50

[[record]]
molecule = "O=C(O)[C@@H]1NC[C@H]2C(Br)=NO[C@H]21"
meas_value = "> 100 µM (inactive)"

[[record]]
molecule = "O=C1C(F)=CC(COC(c2ccccc2)(c2ccccc2)c2ccccc2)OC1n1cc(F)c(=O)[nH]c1=O (stereo not given)"
meas_value = "1.61 µM (inactive)"

[[record]]
molecule = "COc1cnc2cc(C(=O)O)c3c([N+](=O)[O-])cccc3c2c1"
meas_value = "> 100 µM (inactive)"

[[record]]
molecule = "O=C(O)c1c[nH]c2c(=O)[nH]cnc12"
meas_value = "> 100 µM (inactive)"

[[record]]
molecule = "COc1c(-c2cccs2)oc2c(CC(=O)O)cccc2c1=O"
meas_value = "> 100 µM (inactive)"

[[record]]
molecule = "C[N+](CCCl)(CCCl)Cc1cccc2cccc([N+](=O)[O-])c12"
meas_value = "73.1 µM (inactive)"

[[record]]
molecule = "Cc1ccc(C(=O)/C=C/N2CCN(c3cccc(C(F)(F)F)c3)CC2)cc1"
meas_value = "17.5 µM (inactive)"

[[record]]
molecule = "CCC1CCC2CCCC(C)N12 (stereo not given)"
meas_value = "> 100 µM (inactive)"

[[record]]
molecule = "COc1cc(CNc2nc3c(NC(C)=O)cc(C(F)(F)F)cc3nc2-c2ccccc2)cc(OC)c1OC"
meas_value = "> 100 µM (inactive)"

[[record]]
molecule = "COc1cc(/C=C(\\NC(=O)c2ccccc2)c2nc3c(O)nc(S)nc3[nH]2)cc(OC)c1OC"
meas_value = "> 100 µM (inactive)"


###

# Test system: HT-29
# Procedure text: NCI tumour cell line growth inhibition, 48 h
The source made the active and inactive calls. Rule as the data show it: active = GI50 up to about 1.1 µM and inactive = higher.
Outcome codes: Yes (active), No (inactive)

[[record]]
test_smiles = "CC1=C(CO)C(=O)O[C@@H]([C@@H](C)[C@H]2CC[C@H]3[C@@H]4C[C@H]5O[C@]56[C@@H](O)C=CC(=O)[C@]6(C)[C@H]4CC[C@]23C)C1"
target_under_test = "HT-29"
classification = "Yes"

[[record]]
test_smiles = "C1CN2CCO[SiH](O1)OCC2"
target_under_test = "HT-29"
classification = "No"

[[record]]
test_smiles = "Oc1cc2cc(O)nc(O)c2c(O)n1"
target_under_test = "HT-29"
classification = "No"

[[record]]
test_smiles = "C=Cc1c(C)c(O)cc2c1-c1ccc(O)c(C)c1CC2"
target_under_test = "HT-29"
classification = "No"

[[record]]
test_smiles = "COc1ccccc1OCC(=N/NC(=O)c1ccncc1)/N=C/c1ccncc1"
target_under_test = "HT-29"
classification = "No"


###

# Tested on: SR
# Procedure text: NCI tumour cell line growth inhibition, 48 h
Active and inactive are the calls of the source. No stated cut-off is given here; in the data, active = GI50 up to about 1.1 µM and inactive = higher.
Outcome measure: GI50

[[record]]
compound = "O=C(O)c1c[nH]c2c(=O)[nH]cnc12"
meas_value = "> 100 µM (inactive)"

[[record]]
compound = "CCCNC(=O)CCC(C)[C@H]1CCC2C3C(C[C@H](OC(C)=O)[C@@]21C)[C@@]1(C)CCC2(C[C@H]1C[C@H]3OC(C)=O)OOC1(CCCCC1)OO2 (some centres not stated)"
meas_value = "1.32 µM (inactive)"

[[record]]
compound = "O=C(N/N=C/c1ccc([N+](=O)[O-])cc1)c1cccc2nc3ccccc3nc12"
meas_value = "> 39.5 µM (inactive)"

[[record]]
compound = "CC(=O)N[C@@H](Cc1ccc(O)cn1)C(=O)NCc1cccc(Cl)c1"
meas_value = "> 100 µM (inactive)"

[[record]]
compound = "O=C1Sc2ccccc2C(=O)N2CSCC12 (configuration not stated)"
meas_value = "> 100 µM (inactive)"

[[record]]
compound = "Oc1ccccc1-n1nc2ccc3nonc3c2n1"
meas_value = "> 100 µM (inactive)"

[[record]]
compound = "CC1CC2C3CCC4=CC(=O)C=CC4(C)C3(F)C(O)CC2(C)C1(O)C(=O)COP(=O)(O)O (configuration not stated)"
meas_value = "46.6 µM (inactive)"

[[record]]
compound = "C/N=C(N)/N=C(\\N)Nc1cc2ccccc2c2ccccc12"
meas_value = "13.8 µM (inactive)"

[[record]]
compound = "Cc1cc(C)c(N)c(CO)c1"
meas_value = "> 100 µM (inactive)"

[[record]]
compound = "O=C1CC[C@@H](NC(=O)Cc2ccccc2)C(=O)N1"
meas_value = "> 100 µM (inactive)"

[[record]]
compound = "COc1cccc(N2C(=O)C3CC(CC(C)(C)C)c4c([nH]c5ccccc45)C3C2=O)c1 (configuration not stated)"
meas_value = "1.48 µM (inactive)"

[[record]]
compound = "COc1ccc(/C=C2\\CCC(CCN(C)C)(C3=CCCC3)C2=O)cc1Br (configuration not stated)"
meas_value = "1.51 µM (inactive)"

[[record]]
compound = "CN(C)c1ccc(/C=C2\\N=C(NN)NC2=O)cc1"
meas_value = "23.4 µM (inactive)"

[[record]]
compound = "C=Cc1c(C)c(O)cc2c1-c1ccc(O)c(C)c1CC2"
meas_value = "3.71 µM (inactive)"

[[record]]
compound = "[O-][S+]1Cc2ccccc2CS1 (configuration not stated)"
meas_value = "20 µM (inactive)"

[[record]]
compound = "COc1ccc(/N=N/c2ccc3oc(=O)c(C(=O)Nc4ccc(Cl)cc4)cc3c2)cc1"
meas_value = "2.38 µM (inactive)"

[[record]]
compound = "Cc1cc(S(=O)(=O)Nc2nc(N)n(-c3ccccn3)n2)c(S)cc1Cl"
meas_value = "> 100 µM (inactive)"

[[record]]
compound = "C1=N\\CCNCC/N=C/c2ccccc2OCc2cccc(n2)COc2ccccc2/1"
meas_value = "4.06 µM (inactive)"

[[record]]
compound = "c1ccc(P2c3ccccc3Nc3ccccc32)cc1"
meas_value = "23.2 µM (inactive)"

[[record]]
compound = "COC(=O)[C@@]1(C)C(=O)CC[C@@H]1C=O"
meas_value = "82.2 µM (inactive)"

[[record]]
compound = "Cc1nc2ccc(S(=O)(=O)Nc3ccc(Cl)cc3)cc2c(=O)n1NC(=O)CNc1ccc(Cl)cc1"
meas_value = "> 100 µM (inactive)"

[[record]]
compound = "O=C1N=C(Nc2ccccc2Cl)SC1C(=O)Nc1ccc([N+](=O)[O-])cc1[N+](=O)[O-] (configuration not stated)"
meas_value = "> 100 µM (inactive)"

